Documented self-cleavage across a set of variants
B1: LINE1-full (parent)
chain: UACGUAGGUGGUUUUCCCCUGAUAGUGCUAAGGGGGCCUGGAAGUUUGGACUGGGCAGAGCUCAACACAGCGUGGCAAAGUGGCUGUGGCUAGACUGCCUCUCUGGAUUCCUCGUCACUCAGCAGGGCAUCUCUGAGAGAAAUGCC

Variants of: B1
Test: self-cleavage, relative activity (ratio to wild type); higher = more cleavage; in vitro, sequencing; the parent is a self-cleaving ribozyme
measurement_kind: self-cleavage

input_sequence | assay_value
UACGUAGGUGGUUUUCCCCUGAUAGUGCUAAGGGGGCCUGGAAGUUUGGACUGGGCAGAGCUCAACACAGCGUGGCAAAGUGGCUGUGGCUGGACUGCCUCUCUGGAUUCCUCGUCACUCAGCAGGGCAUCUUUGAGAGAAAUGCC [A92G C133U] | 0.02
UACGUAGGUGGUUUUCCCCUGAUAGUGCUAAGGGGGCCUGGAAGUGUGGACUGGGCAGAGCUCAACACAGCGUGGCAAAGUGGCUGUGGCUAGACUGCCUCCCUGGAUUCCUCGUCACUCAGCAGGGCAUCUCUGAGAGAAAUGCC [U46G U102C] | 1.19
UACGUAGGUGGUUUUCCCCUGAUAGUGCUAAGGGGGCCUGGAAGUUUGGGCUGGGCAGAGCUCAACACAGCGUGGCAAAGUGGCUGUGGCUAGACUGCCUCUCUGGAUUCCUCGUCACUCAGCAAGGCAUCUCUGAGAGAAAUGCC [A50G G125A] | 0.39
UACGUAGUAGGUUUUCCCCUGAUAGUGCUAAGGGGGCCUGGAAGUUUGGACUGGGCAGAGCUCAACACAGCGUGGCAAAGUGGCUGUGGCUAGACUGCCUCUCUGGAUUCCUCGUCACUCAGCAGGGCAUCUCUGAGAGAAAUGCC [G8U U9A] | 2.01
UACGUAGGUGGUUUUCCCCUGAUAGUGCUAAGGGGGCCUGGAAGUUUGGACUGGGCAGAGCUCAACACAGCGUGGCAAAGUGGCUGUGGCUAGACUGCCUCUCUGGAUUCUUCGACACUCAGCAGGGCAUCUCUGAGAGAAAUGCC [C111U U115A] | 1.77
UACGUAAGUGGUUUUCCCCUGAUAGUGCUAAGGGGGCCUGGAAGUUUGGACUGGGCUGAGCUCAACACAGCGUGGCAAAGUGGCUGUGGCUAGACUGCCUCUCUGGAUUCCUCGUCACUCAGCAGGGCAUCUCUGAGAGAAAUGCC [G7A A57U] | 0.07
UACGUAGGUGGUUUUCCCCUGAUAGUGCUAAGGGGGCCUGGAAGUUUGGACCGGGCAGAGCUCAACACAGCGUGGCAAGGUGGCUGUGGCUAGACUGCCUCUCUGGAUUCCUCGUCACUCAGCAGGGCAUCUCUGAGAGAAAUGCC [U52C A79G] | 0.75
